Taken from patent US10087187B2.

This document collects Kd values reported for PIK3Cγ_h (Homo sapiens (Human)).
test.readout: Kd (µM)

(I) Cc1nc2c(N)cc(N3CCOCC3)nn2c1Cc1cccc(F)c1CO
(II) Cc1c(Cc2c(CCO)nc3c(N)cc(N4CCOCC4)nn23)cccc1C(F)(F)F
(III) Cc1c(Cc2c(C(C)O)nc3c(-c4c[nH]cn4)cc(N4CCOCC4)nn23)cccc1C(F)(F)F (stereo not drawn)
Asked: Thanks in advance: please rank these 3 entries by Kd, highest to lowest. Answer format: the labels, in the requested order.
Given back: II, I, III

----------
# System: Akt phosphorylated at Thr308 in PC-3 cells
# test.method.notes: Cellular assay: phosphorylation of Akt (Thr308) in PC-3 cells, MSD ELISA
# Assay type: cell-based
# test.parameters: Homo sapiens, PC-3, 1 h, 60 min incubation with compound, read-out: IC50 pAkt_Thr308
pIC50: −log10 of the molar value.
test.readout: pIC50

Some molecules with recorded pIC50:
Cc1nc2c(C(N)=O)cc(N3CCOCC3)nn2c1Nc1cccc(C(F)(F)F)c1C; 7.22
Cc1nc2c(C(=O)O)cc(N3CCOC(C)C3)nn2c1Cc1cccc(C(F)(F)F)c1C (stereo not drawn); 6.42
Cc1nc2c(N)cc(N3CCOCC3)nn2c1Nc1cccc(C(F)(F)F)c1CN1CC(O)C1; 7.48
CCc1c(F)cccc1Cc1c(CO)nc2c(N)cc(N3CCOCC3)nn12; 6.70
Nc1cc(N2CCOCC2)nn2c(Cc3cccc(C(F)(F)F)c3C3CCNCC3)c(CO)nc12; 7.54

(a) Cc1c(Cc2c(CO)nc3c(-c4ccn[nH]4)cc(N4CCOCC4)nn23)cccc1C(F)(F)F
(b) Cc1nc2c(N)cc(N3CCOCC3)nn2c1Nc1cccc(C(F)(F)F)c1CN1CCN(C)CC1
Asked: Between the two listed entries a and b , which has its pIC50 at the higher number? Indicate which entry you chose by stating its label.
Given back: b
(b: 7.77, a: 7.30)

(P) Cc1nc2c(-c3c[nH]cn3)cc(N3CCOCC3)nn2c1Nc1cccc(F)c1C
(Q) Cc1nc2c(-c3ccn[nH]3)cc(N3CCOCC3)nn2c1Nc1ccccc1N1CCOCC1
Asked: Between the two listed entries P and Q , which has its pIC50 at the higher number? Indicate which entry you chose by stating its label.
Given back: P

(I) Cc1nc2c(N)cc(N3CCOCC3)nn2c1Nc1cccc(C(F)(F)F)c1CN1CCOCC1
(II) Cc1c(Nc2c(CO)nc3c(C(N)=O)cc(N4CCOCC4)nn23)cccc1C(F)(F)F
Asked: For the pair I and II , which member has the lower pIC50 number? Indicate which entry you chose by stating its label.
Given back: II
(II: 7.70, I: 8.00)

(a) Cc1nc2c(-c3ccn[nH]3)cc(N3CCOCC3)nn2c1Cc1cccc(C(F)(F)F)c1C
(b) Cc1nc2c(N)cc(N3CCOCC3)nn2c1Nc1cccc(F)c1CNC(C)CO (stereo not drawn)
Asked: Between the two listed entries a and b , which has its pIC50 at the higher number? Indicate which entry you chose by stating its label.
Given back: b
(b: 6.97, a: 6.69)

----------
# Test system: Akt phosphorylated at Thr308 in PC-3 cells
# test.method.notes: Cellular assay: phosphorylation of Akt (Thr308) in PC-3 cells, MSD ELISA
# Type: cell-based
# test.parameters: Homo sapiens, PC-3, 1 h, 60 min incubation with compound, read-out: IC50 pAkt_Thr308
pIC50: −log10 of the molar value.
test.readout: pIC50

Cc1nc2c(N)cc(N3CCOCC3)nn2c1Nc1cccc(C(F)(F)F)c1CN1CCCC1 [Compound 62]; ~7.13
Cc1nc2c(-c3ncc[nH]3)cc(N3CCOCC3)nn2c1Nc1cccc(C(F)(F)F)c1C [Compound 34]; ~7.49
Cc1nc2c(N)cc(N3CCOCC3)nn2c1Cc1cccc(F)c1C1CCN(CCO)CC1 [Compound 107]; 6.94
Cc1nc2c(N)cc(N3CCOCC3)nn2c1Cc1cccc(C(F)(F)F)c1C [Compound 6]; ~7.07
Cc1c(Cc2c(CNCCO)nc3c(N)cc(N4CCOCC4)nn23)cccc1C(F)(F)F [Compound 3]; ~7.15

Summary for this molecule, Cc1nc2c(-c3ncc[nH]3)cc(N3CCOCC3)nn2c1Cc1cccc(C(F)(F)F)c1C [Compound 7] : pIC50 is 6.87

Summary for this molecule, CC(=O)OCc1nc2c(N)cc(N3CCOCC3)nn2c1Cc1cccc(C(F)(F)F)c1C [Compound 61] : pIC50 is 6.82

Summary for this molecule, Cc1c(Cc2c(CN)nc3c(N)cc(N4CCOCC4)nn23)cccc1C(F)(F)F [Compound 85] : pIC50 is 7.07

Summary for this molecule, Cc1cccc(Cc2c(C)nc3c(C(=O)O)cc(N4CCOCC4)nn23)c1C [Compound 12] : pIC50 is ~6.82

Summary for this molecule, Cc1nc2c(N)cc(N3CCOCC3)nn2c1Nc1cccc(F)c1CN1CCOCC1 [Compound 63] : pIC50 is 7.02
